log10 of IC50 values, listed per item
Molecular target: T1, human calcitonin receptor (human, UniProt P30988 25-474)
T1 construct: whole, on cells; Used as cell membranes prepared from the transfected BHK cells (Assay VII), not as intact cells; also called hCTR; hCT
T1 sequence (looked up): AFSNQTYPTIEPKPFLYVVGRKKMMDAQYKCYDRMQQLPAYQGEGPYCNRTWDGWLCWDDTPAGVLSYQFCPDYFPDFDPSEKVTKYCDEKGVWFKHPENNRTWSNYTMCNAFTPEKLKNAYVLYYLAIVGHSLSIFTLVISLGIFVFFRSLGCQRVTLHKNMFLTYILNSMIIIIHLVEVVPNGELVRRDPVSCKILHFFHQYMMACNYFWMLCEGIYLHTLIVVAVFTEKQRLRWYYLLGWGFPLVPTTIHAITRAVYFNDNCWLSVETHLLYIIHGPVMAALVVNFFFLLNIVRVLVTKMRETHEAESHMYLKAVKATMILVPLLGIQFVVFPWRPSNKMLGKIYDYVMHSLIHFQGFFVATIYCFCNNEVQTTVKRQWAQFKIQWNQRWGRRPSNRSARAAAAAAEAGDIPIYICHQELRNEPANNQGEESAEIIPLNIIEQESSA
Assay: SPA competition against 125I-calcitonin, membranes with human calcitonin receptor (Assay VII)
Numbered stars: 1 amine (or outer) side, 2 acyl side, 3 side chain; on linkers, the order of the positions; unused ones are H or OH. Bridge positions count the residues as written; N and C are the ends. Side chains are listed from the residue outwards. Ends that are not written are not given here. * marks the point of attachment. C20 diacid = O=C(O)CCCCCCCCCCCCCCCCCCC(=O)*; γGlu = O=C(O)[C@H](CCC(=O)[*:2])N[*:1]; AEEA = NCCOCCOCC(=O)O
Base-10 log of IC50, unit nM.

Previously resolved entries follow.
BINDER	log10 of IC50
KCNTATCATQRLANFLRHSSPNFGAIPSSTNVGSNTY (C20 diacid-gGlu-2xOEG on the alpha amino group of the N-terminal Lys1; disulfide Cys2-Cys7; C-terminal amide, also called compound 24)	2.01
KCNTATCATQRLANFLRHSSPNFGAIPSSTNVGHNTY (C20 diacid-gGlu on the alpha amino group of the N-terminal Lys1; disulfide Cys2-Cys7; C-terminal amide, also called compound 40) [N^α1-[(4S)-4-carboxy-4-(19-carboxynonadecanoylamino)butanoyl]-[Arg17,Pro21,Pro27,His34]-h-amylin]	1.23
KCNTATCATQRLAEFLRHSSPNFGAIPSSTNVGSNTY (C20 diacid-gGlu-2xOEG on the alpha amino group of the N-terminal Lys1; disulfide Cys2-Cys7; C-terminal amide, also called compound 19)	1.31

Value of log10 of IC50 reported for the binder K([AEEA-γGlu-C20 diacid])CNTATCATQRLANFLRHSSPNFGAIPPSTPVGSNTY-NH2 (disulfide 2-7, also called compound 53) is 0.73

Value of log10 of IC50 reported for the binder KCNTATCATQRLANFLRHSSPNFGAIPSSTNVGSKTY (C20 diacid-gGlu on the alpha amino group of the N-terminal Lys1; disulfide Cys2-Cys7; C-terminal amide, also called compound 34) [N^α1-[(4S)-4-carboxy-4-(19-carboxynonadecanoylamino)butanoyl]-[Arg17,Pro21,Pro27,Lys35]-h-amylin] is 1.87

Value of log10 of IC50 reported for the binder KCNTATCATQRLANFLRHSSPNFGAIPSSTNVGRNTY (C20 diacid-gGlu on the alpha amino group of the N-terminal Lys1; disulfide Cys2-Cys7; C-terminal amide, also called compound 39) [N^α1-[(4S)-4-carboxy-4-(19-carboxynonadecanoylamino)butanoyl]-[Arg17,Pro21,Pro27,Arg34]-h-amylin] is 1.29

Value of log10 of IC50 reported for the binder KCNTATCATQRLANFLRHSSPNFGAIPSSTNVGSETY (C20 diacid-gGlu on the alpha amino group of the N-terminal Lys1; disulfide Cys2-Cys7; C-terminal amide, also called compound 23) [N^α1-[(4S)-4-carboxy-4-(19-carboxynonadecanoylamino)butanoyl]-[Arg17,Pro21,Pro27,Glu35]-h-amylin] is 1.34
